Overview of reported relative viability across a group of molecules:
test system: NCI-H2087; assay: relative viability (nuclei count vs DMSO), 5 days (fraction); higher = more cells survive; settings: first compound 0.001 µM

Reported NCI-H2087 relative viability for item Cc1cn(-c2cc(NC(=O)c3ccc(C)c(Nc4nccc(-c5cccnc5)n4)c3)cc(C(F)(F)F)c2)cn1 [Nilotinib] + Cc1nc(Nc2ncc(C(=O)Nc3c(C)cccc3Cl)s2)cc(N2CCN(CCO)CC2)n1 [Dasatinib] (partner 0.075 µM) was 0.821

Reported NCI-H2087 relative viability for item Cc1cn(-c2cc(NC(=O)c3ccc(C)c(Nc4nccc(-c5cccnc5)n4)c3)cc(C(F)(F)F)c2)cn1 [Nilotinib] + C[C@]1(O)C[C@@H](c2nc(-c3ccc4ccc(-c5ccccc5)nc4c3)c3c(N)nccn32)C1 [Linsitinib] (partner 1 µM) was 0.855

====

test system: COR-L 105; experiment: relative viability (nuclei count vs DMSO), 5 days (fraction); higher = more cells survive; conditions: first compound 0.06325 µM
MEASURE: relative viability
API note: the answer field is a bare number with no unit suffix.

Some molecules with known relative viability results, for comparison:
Briefly, relative viability measured for CCNC(=O)c1noc(-c2cc(C(C)C)c(O)cc2O)c1-c1ccc(CN2CCOCC2)cc1 [Luminespib] + Cc1nc(NC(=O)N2CCC[C@H]2C(N)=O)sc1-c1ccnc(C(C)(C)C(F)(F)F)c1 [Alpelisib] (partner 2 µM) : 0.343

Briefly, relative viability measured for CCNC(=O)c1noc(-c2cc(C(C)C)c(O)cc2O)c1-c1ccc(CN2CCOCC2)cc1 [Luminespib] + CC1(C)CCC(c2ccc(Cl)cc2)=C(CN2CCN(c3ccc(C(=O)NS(=O)(=O)c4ccc(N[C@H](CCN5CCOCC5)CSc5ccccc5)c(S(=O)(=O)C(F)(F)F)c4)cc3)CC2)C1 [Navitoclax] (partner 0.5 µM) : 0.278

Briefly, relative viability measured for CCNC(=O)c1noc(-c2cc(C(C)C)c(O)cc2O)c1-c1ccc(CN2CCOCC2)cc1 [Luminespib] + N=C(N)NC(=N)NCCc1ccccc1 [Phenformin] (partner 250 µM) : 0.154

Briefly, relative viability measured for CCNC(=O)c1noc(-c2cc(C(C)C)c(O)cc2O)c1-c1ccc(CN2CCOCC2)cc1 [Luminespib] + O=C(c1cc(Cc2n[nH]c(=O)c3ccccc23)ccc1F)N1CCN(C(=O)C2CC2)CC1 [Olaparib] (partner 8 µM) : 0.256

Briefly, relative viability measured for CCNC(=O)c1noc(-c2cc(C(C)C)c(O)cc2O)c1-c1ccc(CN2CCOCC2)cc1 [Luminespib] + CC(C)C[C@H](NC(=O)[C@H](Cc1ccccc1)NC(=O)c1cnccn1)B(O)O [Bortezomib] (partner 0.002 µM) : 0.176

Continuing:
Briefly, relative viability measured for CCNC(=O)c1noc(-c2cc(C(C)C)c(O)cc2O)c1-c1ccc(CN2CCOCC2)cc1 [Luminespib] + C[C@@H](Oc1cc(-c2cnn(C3CCNCC3)c2)cnc1N)c1c(Cl)ccc(F)c1Cl [Crizotinib] (partner 1 µM) : 0.165

====

Overview of reported relative viability across a group of molecules:
system: NCI-H2347; test: relative viability (nuclei count vs DMSO), 5 days (fraction); higher = more cells survive; settings: first compound 0.2 µM
API note: the answer field is a bare number with no unit suffix.

Some molecules with known relative viability results, for comparison:
Briefly, relative viability measured for CN1CCN(CCOc2cc(OC3CCOCC3)c3c(Nc4c(Cl)ccc5c4OCO5)ncnc3c2)CC1 [Saracatinib] + N=C(N)NC(=N)NCCc1ccccc1 [Phenformin] (partner 250 µM) : 0.26

Briefly, relative viability measured for Cc1csc(=NC2CCCCC2)n1/N=C/c1ccc(O)c(O)c1O [MIM1] + COc1cccc2cc(-c3nc([C@H]4CC[C@H](C(=O)O)CC4)n4ncnc(N)c34)[nH]c12 [OSI-027] (partner 0.5 µM) : 0.41

Briefly, relative viability measured for CCNC(=O)c1noc(-c2cc(C(C)C)c(O)cc2O)c1-c1ccc(CN2CCOCC2)cc1 [Luminespib] + O=C(c1cc(Cc2n[nH]c(=O)c3ccccc23)ccc1F)N1CCN(C(=O)C2CC2)CC1 [Olaparib] (partner 8 µM) : 0.296

Briefly, relative viability measured for Cc1csc(=NC2CCCCC2)n1/N=C/c1ccc(O)c(O)c1O [MIM1] + CC(=O)Nc1cccc(-n2c(=O)n(C3CC3)c(=O)c3c(Nc4ccc(I)cc4F)n(C)c(=O)c(C)c32)c1 [Trametinib] (partner 0.02 µM) : 0.309

Now examine the next entry.
Briefly, relative viability measured for Cc1csc(=NC2CCCCC2)n1/N=C/c1ccc(O)c(O)c1O [MIM1] + O=C(c1cc(Cc2n[nH]c(=O)c3ccccc23)ccc1F)N1CCN(C(=O)C2CC2)CC1 [Olaparib] (partner 8 µM) : 0.525

From: the supplement of paper PMC10307832
